Biological target: UniProt:P35414
Sequence (P35414 whole entry): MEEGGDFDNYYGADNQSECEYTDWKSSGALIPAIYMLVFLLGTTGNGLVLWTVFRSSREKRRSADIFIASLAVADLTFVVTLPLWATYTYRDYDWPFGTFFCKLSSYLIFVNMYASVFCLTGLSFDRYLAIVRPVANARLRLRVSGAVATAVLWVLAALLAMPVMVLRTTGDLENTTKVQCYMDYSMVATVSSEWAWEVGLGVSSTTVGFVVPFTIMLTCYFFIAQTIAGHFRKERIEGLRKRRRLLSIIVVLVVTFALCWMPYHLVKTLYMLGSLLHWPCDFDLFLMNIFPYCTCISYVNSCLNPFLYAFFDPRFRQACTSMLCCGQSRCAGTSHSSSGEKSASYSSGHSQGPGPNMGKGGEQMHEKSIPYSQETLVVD
Experiment: biochemical
Assay type: biochemical
Details: read-out: Activity hAPJ SPA EC50 IP
Protocol: The human APJ receptor was cloned by polymerase chain reaction and the gene encoding the receptor was subcloned in pFLAG-CMV™-3 expression vector (Sigma, Saint Louis, Mo. USA) in-house at Amgen. A GTPγS binding assay was performed on membranes prepared from CHO cells stably expressing human APJ receptor. The optimum experimental conditions for the concentrations of GDP, MgCl2, and NaCl in the assay buffer were initially determined. […]
Lab note: compare EC50 with 30 nM, writing 1 (yes) if less and 0 (no) if equal or more.

| compound | target.or.system | qualitative.label |
| --- | --- | --- |
| COc1cccc(OC)c1-n1c(NS(=O)(=O)[C@@H](C)[C@H](C)c2ncc(F)cn2)nnc1-c1cccc(OCCO)n1 | UniProt:P35414 | 1 (yes) |
| Cc1cnc([C@@H](C)[C@H](C)S(=O)(=O)Nc2nnc(-c3cccc(C)n3)n2-c2c(F)cccc2F)nc1 | UniProt:P35414 | 1 (yes) |
| COc1cccc(OC)c1-n1c(NS(=O)(=O)[C@@H](C)[C@H](C)c2ncc(F)cn2)nnc1-c1cccc(OCC(O)(C(F)(F)F)C(F)(F)F)n1 | UniProt:P35414 | 0 (no) |
| COc1cccc(-c2nnc(NS(=O)(=O)[C@H](C)[C@H](OC)c3ccc(C#N)cc3C#N)n2-c2c(OC)cccc2OC)n1 (single isomer, unassigned) | UniProt:P35414 | 1 (yes) |
| COc1cccc(OC)c1-n1c(NS(=O)(=O)CCc2ccc(Cl)cc2)nnc1-c1ccccn1 | UniProt:P35414 | 0 (no) |
| COc1cccc(OC)c1-n1c(NS(=O)(=O)[C@@H](C)[C@H](C)c2ncc(F)cn2)nnc1-c1cccc(Cl)n1 | UniProt:P35414 | 1 (yes) |
| COc1cccc(OC)c1-n1c(NS(=O)(=O)C[C@@H](O)C2CCC2)nnc1-c1cncc(C)c1 (mixture of isomers) | UniProt:P35414 | 0 (no) |
| COc1cccc(OC)c1-n1c(NS(=O)(=O)[C@H](C)[C@@H](C)c2cnc(C)cn2)nnc1-c1cccnc1 (racemic) | UniProt:P35414 | 1 (yes) |
| COc1cccc(OC)c1-n1c(NS(=O)(=O)[C@@H](C)Cc2ncc(F)cn2)nnc1-c1cnccc1C (single isomer, unassigned) [Example 218.0] | UniProt:P35414 | 0 (no) |
| COc1cnc([C@@H](OC)[C@H](C)S(=O)(=O)Nc2nnc(-c3cncc(C)c3)n2-c2c(OC)cccc2OC)cn1 (single isomer, unassigned) [Example 312.0] | UniProt:P35414 | 1 (yes) |
| COc1cccc(-c2nnc(NS(=O)(=O)[C@H](C)[C@@H](C)c3ncc(C)cn3)n2-c2c(OC)cccc2OC)n1 | UniProt:P35414 | 1 (yes) |
| COc1cccc(-c2nnc(NS(=O)(=O)[C@@H](C)[C@H](OC)c3ncc(Cl)cn3)n2C2CCOCC2)n1 | UniProt:P35414 | 1 (yes) |
| COc1ccccc1-n1c(NS(=O)(=O)[C@@H](C)[C@H](C)c2ncc(C)cn2)nnc1-c1cncc(C)c1 (atropisomer, axis not shown) | UniProt:P35414 | 1 (yes) |
| COc1cnc([C@@H](OC)[C@@H](C)S(=O)(=O)Nc2nnc(-c3cncc(C)c3)n2-c2c(OC)cccc2OC)nc1 [Example 687.0, 2,2,2-trifluoroacetate] | UniProt:P35414 | 1 (yes) |
| COc1cccc(OC)c1-n1c(NS(=O)(=O)[C@@H](C)Cc2ncc(F)cn2)nnc1-c1cnccc1C (single isomer, unassigned) [Example 217.0] | UniProt:P35414 | 0 (no) |
| COc1cccc(OC)c1-n1c(NS(=O)(=O)[C@@H](C)[C@H](C)c2ncc(F)cn2)nnc1-c1cncc(C)c1 (single isomer, unassigned) [Example 235.0] | UniProt:P35414 | 1 (yes) |
| COc1cnc([C@@H](OC)[C@H](C)S(=O)(=O)Nc2nnc(-c3cncc(C)c3)n2-c2ccccc2)nc1 | UniProt:P35414 | 1 (yes) |
| COc1ncnc(OC)c1-n1c(NS(=O)(=O)[C@@H](C)[C@@H](OC(C)C)c2ncc(C)cn2)nnc1-c1cncc(C)c1 | UniProt:P35414 | 1 (yes) |
| COc1cccc(OC)c1-n1c(NS(=O)(=O)[C@@H](C)Cc2ncc(F)cn2)nnc1-c1cncc(Cl)c1 (single isomer, unassigned) [Example 221.0] | UniProt:P35414 | 0 (no) |
| COc1cccc(OC)c1-n1c(NS(=O)(=O)[C@H](C)[C@@H](O)c2cnc(C)cn2)nnc1-c1cncc(C)c1 (single isomer, unassigned) [Example 568.0] | UniProt:P35414 | 1 (yes) |
| Cc1cnc([C@@H](C)[C@H](C)S(=O)(=O)Nc2nnc(-c3cccnc3)n2-c2c(F)cccc2F)nc1 | UniProt:P35414 | 1 (yes) |
| COc1cccc(OC)c1-n1c(NS(=O)(=O)[C@@H](C)[C@H](C)c2ncc(F)cn2)nnc1-c1cccc(OCC(C)(C)O)n1 | UniProt:P35414 | 0 (no) |
| COc1cccc(-c2nnc(NS(=O)(=O)[C@@H](C)[C@H](O)c3cnc(C)cn3)n2-c2c(OC)cccc2OC)n1 (single isomer, unassigned) [Example 577.0] | UniProt:P35414 | 1 (yes) |
